- Experiment Description: APR_HepG2_MitoticArrest_72hr: Apredica 72-hour HepG2 Assay for Mitotic Arrest (AID 2282918)
- Condition Parameters: high-content imaging, actives raise or lower the signal
Active and inactive are the calls of the source. How the source made its calls: active means hit-call score of the fitted dose curve at least 0.9, where 1 is the maximum; inactive means score below 0.9.
Experimental Readout: AC50

>>> test_value("CC[C@H](NC(=O)c1cc(F)ccc1NS(=O)(=O)c1cccc2cccnc12)c1ccccc1")
"92.5 µM (active)"
>>> test_value("OC12N=C(c3ccccc3)SC1Cc1cc(Cl)ccc12 (stereo unspecified)")
"46.8 µM (active)"
>>> test_value("CCCCCCCCN(C)CCCCCCCC")
"inactive"
>>> test_value("O=C1c2ccccc2C(=O)N1CCc1noc(-c2ccc(CN3CCCCCC3)s2)n1")
"inactive"
>>> test_value("c1ccc2ccccc2c1")
"0.0415 µM (active)"
>>> test_value("COc1cccc([C@H](O)C2CCN(CCc3ccc(F)cc3)CC2)c1OC")
"102 µM (active)"

###

- Experiment Description: BSK_CASM3C_SRB: Viability Assessment in the BioMAP Diversity Plus: CASM3C Assay (AID 2283050);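 further: total protein by SRB staining as cytotoxicity measure in parallel cultures; cells exposed to compound for 24 h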
- Condition Parameters: primary human coronary artery smooth muscle cells
Calls of active or inactive are those of the source. How the source made its calls: active means hit-call score of the fitted dose curve at least 0.9, where 1 is the maximum; inactive means score below 0.9.
Outcomes: active, inactive

>>> class_assignment("c1ccc2ccccc2c1")
"inactive"
>>> class_assignment("Cc1ncc(CO)c(CO)c1O")
"inactive"
>>> class_assignment("CC1=CC(=O)/C(=C(/C)O)C(=O)O1")
"inactive"
>>> class_assignment("CN(C)C(=O)C1(N2CCCCC2)CCN(CC[C@@]2(c3ccc(Cl)c(Cl)c3)CN(C(=O)c3ccccc3)CCO2)CC1")
"active"
>>> class_assignment("CCCCCCCCOC(=O)c1cc(O)c(O)c(O)c1")
"active"
>>> class_assignment("O=C(OCCCCCCOC(=O)c1ccccc1)c1ccccc1")
"inactive"
>>> class_assignment("c1ccc(C[n+]2cccc3ccccc32)cc1")
"inactive"
>>> class_assignment("NC(=O)c1nc(-c2cccc(-c3cc(F)ccc3OCC(F)(F)C(F)(F)F)c2)n[nH]1")
"inactive"
>>> class_assignment("Cc1cccc2ccccc12")
"inactive"

###

- Read-out: CD40, CD40 (gene 958)
- Experiment Description: BSK_LPS_CD40: BioMAP Diversity Plus: LPS Assay for CD40 Biomarker Activity (AID 2283076)
- Condition Parameters: primary human HUVEC with PBMC; actives raise or lower the signal
The source made the active and inactive calls. How the source made its calls: active means hit-call score of the fitted dose curve at least 0.9, where 1 is the maximum; inactive means score below 0.9.
Experimental Readout: AC50

>>> test_value("Cc1cc2c(cc1C(F)(F)F)N(C(=O)Nc1ccc(Oc3cccnc3C)nc1)CC2")
"12.1 µM (active)"
>>> test_value("c1ccc2n[nH]nc2c1")
"inactive"
>>> test_value("COc1cccc([C@H](O)C2CCN(CCc3ccc(F)cc3)CC2)c1OC")
"inactive"
>>> test_value("COc1cc(C(=O)NC2CCN(C)CC2)ccc1Nc1ncc2c(n1)N(C1CCCC1)CC(F)(F)C(=O)N2C")
"10.1 µM (active)"
>>> test_value("Cc1occc1C(=O)Nc1ccc(C(=O)N2CCC(F)(F)/C(=C\\C(=O)N3CCC(N4CCCCC4)CC3)c3ccccc32)cc1")
"inactive"
>>> test_value("NC(=O)c1nc(-c2cccc(-c3cc(F)ccc3OCC(F)(F)C(F)(F)F)c2)n[nH]1")
"22.6 µM (active)"
>>> test_value("CC(C)(O)c1ccc(CNC(=O)c2cccnc2Oc2ccc3nonc3c2)cc1")
"inactive"
>>> test_value("O=C(O)c1ccccc1-n1cc(C(=O)O)c(=O)c2cc(Nc3c(F)cc(F)cc3Cl)c(Cl)cc21")
"inactive"
>>> test_value("CCN(Cc1cccnc1)C(=O)c1cccc(Cl)c1[C@]1(C)C(=O)N(Cc2ccc(OC)cc2OC)c2ccc(Cl)cc21")
"5.26 µM (active)"
>>> test_value("O=c1ccc2ccccc2o1")
"inactive"
>>> test_value("Cc1c2ccccc2c(C)c2c1ccc1ccccc12")
"15.3 µM (active)"
>>> test_value("Clc1cc(Cl)c2c(c1)N=C1CCCCCN1C2")
"inactive"
>>> test_value("CCN(Cc1cccc(S(=O)(=O)O)c1)c1ccc(C(=C2C=CC(=[N+](CC)Cc3cccc(S(=O)(=O)O)c3)C=C2)c2ccccc2S(=O)(=O)[O-])cc1")
"inactive"
>>> test_value("OC12N=C(c3ccccc3)SC1Cc1cc(Cl)ccc12 (stereo unspecified)")
"16.8 µM (active)"
>>> test_value("CC[C@@H]1C[C@H](N(Cc2cc(C(F)(F)F)cc(C(F)(F)F)c2)C(C)=O)c2cc(C(F)(F)F)ccc2N1C(=O)OC(C)C")
"inactive"
>>> test_value("CC(C)(C)c1csc(-c2cc3cc(OCc4ccccc4CC(=O)O)ccc3o2)n1")
"20.7 µM (active)"
